# Test system: KURAMOCHI (Ovarian Carcinoma)
# ASSAY COMMENT: combination Emax (second highest fraction inhibited in the dose matrix, 72 h); higher = more inhibition; extreme values may be limits of the assay
# binarize combination Emax: threshold 0.5 inclusive, high side class 1, low side class 0

[[record]]
compound = "CC1(C)CCC(CN2CCN(c3ccc(C(=O)NS(=O)(=O)c4ccc(NCC5CCOCC5)c([N+](=O)[O-])c4)c(Oc4cnc5[nH]ccc5c4)c3)CC2)=C(c2ccc(Cl)cc2)C1 [Venetoclax] + C=CCn1c(=O)c2cnc(Nc3ccc(N4CCN(C)CC4)cc3)nc2n1-c1cccc(C(C)(C)O)n1 [AZD1775] (first compound max 1 µM, partner max 1 µM)"
class_assignment = "class 1"

[[record]]
compound = "C[C@@H](Nc1cc(F)cc(F)c1)c1cc(C(=O)N(C)C)cc2c(=O)cc(N3CCOCC3)oc12 [AZD8186] + C1CN(CCC1(C(=O)N[C@@H](CCO)C2=CC=C(C=C2)Cl)N)C3=NC=NC4=C3C=CN4 [AZD5363] (first compound max 10 µM, 7x7, partner max 10 µM)"
class_assignment = "class 0"

[[record]]
compound = "NC1(C(=O)N[C@@H](CCO)c2ccc(Cl)cc2)CCN(c2ncnc3[nH]ccc23)CC1 [Capivasertib] + C[C@@H]1COCCN1C2=NC(=NC(=C2)C3(CC3)[S@](=N)(=O)C)C4=C5C=CNC5=NC=C4 [AZD6738] (first compound max 10 µM, 7x7, partner max 10 µM)"
class_assignment = "class 1"

[[record]]
compound = "NC1(C(=O)N[C@@H](CCO)c2ccc(Cl)cc2)CCN(c2ncnc3[nH]ccc23)CC1 [Capivasertib] + CC(C)n1c(=O)n(C)c2cnc3cc(F)c(-c4ccc(OCCCN5CCCCC5)nc4)cc3c21 [AZD1390] (first compound max 10 µM, 7x7, partner max 0.3 µM)"
class_assignment = "class 0"

[[record]]
compound = "CN(CCO)CC[C@H](CSc1ccccc1)Nc1ccc(S(=O)(=O)NC(=O)c2ccc(N3CCC([C@@H](O)c4ccccc4-c4ccc(Cl)cc4)CC3)cc2)cc1S(=O)(=O)C(F)(F)F [AZD4320] + CCN(CCO)CCCOc1ccc2c(Nc3cc(CC(=O)Nc4cccc(F)c4)[nH]n3)ncnc2c1 [AZD2811] (first compound max 1 µM, 7x7, partner max 1 µM)"
class_assignment = "class 0"

[[record]]
compound = "CC1(C)CCC(CN2CCN(c3ccc(C(=O)NS(=O)(=O)c4ccc(NCC5CCOCC5)c([N+](=O)[O-])c4)c(Oc4cnc5[nH]ccc5c4)c3)CC2)=C(c2ccc(Cl)cc2)C1 [Venetoclax] + CCN(CCO)CCCOc1ccc2c(Nc3cc(CC(=O)Nc4cccc(F)c4)[nH]n3)ncnc2c1 [AZD2811] (first compound max 1 µM, 7x7, partner max 1 µM)"
class_assignment = "class 0"

[[record]]
compound = "CN(CCO)CC[C@H](CSc1ccccc1)Nc1ccc(S(=O)(=O)NC(=O)c2ccc(N3CCC([C@@H](O)c4ccccc4-c4ccc(Cl)cc4)CC3)cc2)cc1S(=O)(=O)C(F)(F)F [AZD4320] + CN(C)CCCOc1ccc(-c2ccc3ncc4c(c3c2)n(C2CCOCC2)c(=O)n4C)cn1 [AZD0156] (first compound max 1 µM, 7x7, partner max 1 µM)"
class_assignment = "class 0"

[[record]]
compound = "Cc1c2c(nn1C)CSCc1cc(n(C)n1)CSc1cc(c3ccccc3c1)OCCCc1c(C(=O)O)n(C)c3c-2c(Cl)ccc13 [AZD5991] + C=CCn1c(=O)c2cnc(Nc3ccc(N4CCN(C)CC4)cc3)nc2n1-c1cccc(C(C)(C)O)n1 [AZD1775] (first compound max 1 µM, partner max 1 µM)"
class_assignment = "class 1"

[[record]]
compound = "CN(CCO)CC[C@H](CSc1ccccc1)Nc1ccc(S(=O)(=O)NC(=O)c2ccc(N3CCC([C@@H](O)c4ccccc4-c4ccc(Cl)cc4)CC3)cc2)cc1S(=O)(=O)C(F)(F)F [AZD4320] + C[C@@H]1COCCN1C2=NC(=NC(=C2)C3(CC3)[S@](=N)(=O)C)C4=C5C=CNC5=NC=C4 [AZD6738] (first compound max 1 µM, 7x7, partner max 10 µM)"
class_assignment = "class 1"

[[record]]
compound = "CC(=O)c1c(C)c2cnc(Nc3ccc(N4CCNCC4)cn3)nc2n(C2CCCC2)c1=O [Palbociclib] + Cn1cnc2c(F)c(Nc3ccc(Br)cc3Cl)c(C(=O)NOCCO)cc21 [Selumetinib] (first compound max 10 µM, 7x7, partner max 10 µM)"
class_assignment = "class 0"


###

combination Emax by entry:
# Test system: T98G (Glioblastoma)
# ASSAY COMMENT: combination Emax (second highest fraction inhibited in the dose matrix, 72 h); higher = more inhibition; extreme values may be limits of the assay
PROPERTY: combination Emax

[[record]]
compound = "CN(CCO)CC[C@H](CSc1ccccc1)Nc1ccc(S(=O)(=O)NC(=O)c2ccc(N3CCC([C@@H](O)c4ccccc4-c4ccc(Cl)cc4)CC3)cc2)cc1S(=O)(=O)C(F)(F)F [AZD4320] + C[C@@H]1COCCN1C2=NC(=NC(=C2)C3(CC3)[S@](=N)(=O)C)C4=C5C=CNC5=NC=C4 [AZD6738] (first compound max 1 µM, 7x7, partner max 10 µM)"
reported = 0.954

[[record]]
compound = "N#Cc1cnc(Nc2cc(NC[C@H]3CNCCO3)c(C(F)(F)F)cn2)cn1 [SRA737] + Nc1ccn([C@@H]2O[C@H](CO)[C@@H](O)C2(F)F)c(=O)n1 [Gemcitabine] (first compound max 10 µM, 7x7, partner max 0.3 µM)"
reported = 0.825

[[record]]
compound = "CC1(C)CCC(CN2CCN(c3ccc(C(=O)NS(=O)(=O)c4ccc(NCC5CCOCC5)c([N+](=O)[O-])c4)c(Oc4cnc5[nH]ccc5c4)c3)CC2)=C(c2ccc(Cl)cc2)C1 [Venetoclax] + CN(C)CCCOc1ccc(-c2ccc3ncc4c(c3c2)n(C2CCOCC2)c(=O)n4C)cn1 [AZD0156] (first compound max 1 µM, 7x7, partner max 1 µM)"
reported = 0.332

[[record]]
compound = "COc1nnc2ccc(N3CCC(c4ccc(OCCN5CCN(C)C(=O)[C@H]5C)cc4)CC3)nn12 [AZD5153] + Cn1cnc2c(F)c(Nc3ccc(Br)cc3Cl)c(C(=O)NOCCO)cc21 [Selumetinib] (first compound max 1 µM, 7x7, partner max 10 µM)"
reported = 0.476

[[record]]
compound = "CCN(CCO)CCCOc1ccc2c(Nc3cc(CC(=O)Nc4cccc(F)c4)[nH]n3)ncnc2c1 [AZD2811] + C[C@@H]1COCCN1C2=NC(=NC(=C2)C3(CC3)[S@](=N)(=O)C)C4=C5C=CNC5=NC=C4 [AZD6738] (first compound max 1 µM, 7x7, partner max 10 µM)"
reported = 0.799


###

# Tested on: HT-1376 (Bladder Carcinoma)
# ASSAY COMMENT: combination Emax (second highest fraction inhibited in the dose matrix, 72 h); higher = more inhibition; extreme values may be limits of the assay
PROPERTY: combination Emax

[[record]]
compound = "CC(=O)c1c(C)c2cnc(Nc3ccc(N4CCNCC4)cn3)nc2n(C2CCCC2)c1=O [Palbociclib] + Cn1cnc2c(F)c(Nc3ccc(Br)cc3Cl)c(C(=O)NOCCO)cc21 [Selumetinib] (first compound max 10 µM, 7x7, partner max 10 µM)"
property = "combination Emax"
reported = 0.0425

[[record]]
compound = "C[C@@H]1COCCN1c1cc(C2([S@](C)(=N)=O)CC2)nc(-c2ccnc3[nH]ccc23)n1 [AZD6738] + O=C(c1cc(Cc2n[nH]c(=O)c3ccccc23)ccc1F)N1CCN(C(=O)C2CC2)CC1 [Olaparib] (first compound max 10 µM, 7x7, partner max 10 µM)"
property = "combination Emax"
reported = 0.456

[[record]]
compound = "COc1cccc(OCCCN)c1-c1cc(Nc2cnc(C#N)cn2)n[nH]1 [Prexasertib] + O=C(c1cc(Cc2n[nH]c(=O)c3ccccc23)ccc1F)N1CCN(C(=O)C2CC2)CC1 [Olaparib] (first compound max 1 µM, 7x7, partner max 10 µM)"
property = "combination Emax"
reported = 0.479


###

Overview of reported combination Emax across a group of molecules:
# System: RO82-W-1 (Thyroid Gland Carcinoma)
# ASSAY COMMENT: combination Emax (second highest fraction inhibited in the dose matrix, 72 h); higher = more inhibition; extreme values may be limits of the assay
PROPERTY: combination Emax

[[record]]
molecule = "CS(=O)(=O)CCNCc1ccc(-c2ccc3ncnc(Nc4ccc(OCc5cccc(F)c5)c(Cl)c4)c3c2)o1 [Lapatinib] + C[C@@H](Oc1cc(-c2cnn(C3CCNCC3)c2)cnc1N)c1c(Cl)ccc(F)c1Cl [Crizotinib] (first compound max 10 µM, 7x7, partner max 10 µM)"
property = "combination Emax"
reported = 0.203

[[record]]
molecule = "Cn1cnc2c(F)c(Nc3ccc(Br)cc3Cl)c(C(=O)NOCCO)cc21 [Selumetinib] + CC(C)n1c(=O)n(C)c2cnc3cc(F)c(-c4ccc(OCCCN5CCCCC5)nc4)cc3c21 [AZD1390] (first compound max 10 µM, 7x7, partner max 0.3 µM)"
property = "combination Emax"
reported = 0.125

[[record]]
molecule = "C[C@@H](c1ccc2nccn2c1)n1nnc2ncc(-c3cnn(C)c3)nc21 [Savolitinib] + CC1(C)CCC(CN2CCN(c3ccc(C(=O)NS(=O)(=O)c4ccc(NCC5CCOCC5)c([N+](=O)[O-])c4)c(Oc4cnc5[nH]ccc5c4)c3)CC2)=C(c2ccc(Cl)cc2)C1 [Venetoclax] (first compound max 1 µM, 7x7, partner max 1 µM)"
property = "combination Emax"
reported = 0.169

[[record]]
molecule = "C[C@@H]1COCCN1c1cc(C2([S@](C)(=N)=O)CC2)nc(-c2ccnc3[nH]ccc23)n1 [AZD6738] + O=C(c1cc(Cc2n[nH]c(=O)c3ccccc23)ccc1F)N1CCN(C(=O)C2CC2)CC1 [Olaparib] (first compound max 10 µM, 7x7, partner max 10 µM)"
property = "combination Emax"
reported = 0.353

